Here, each record is paired with measured protein stability index data.
B1: STEAP1 (parent)
chain: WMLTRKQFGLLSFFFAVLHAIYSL

Variants of: B1
Test: protein stability index of a GFP-peptide fusion (GPS, HEK-293T) (PSI 1-6); higher = more stable;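 further: lentivirally expressed fusions sorted by FACS into six bins by GFP to DsRed ratio, PSI derived from sequencing read proportions per bin multiplied by bin number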
Conditions: c terminus: a fixed tail appended
The answer should be written as a number, with no unit following it.

Below: 5 variants and their reported protein stability index.
[
  {
    "Mutant Id": "W1I",
    "Result Number": 2.44
  },
  {
    "Mutant Id": "L18V",
    "Result Number": 1.66
  },
  {
    "Mutant Id": "L3A",
    "Result Number": 1.73
  },
  {
    "Mutant Id": "A16Y",
    "Result Number": 1.54
  },
  {
    "Mutant Id": "I21W",
    "Result Number": 1.63
  }
]

Could you share which protein stability index value was measured for "Q7R" ?
1.7

Any idea what its protein stability index is? The variant is "H19Y"
3.25

What value of protein stability index has been reported for the following variant? "F14W"
1.82

Quick one: protein stability index of "F15N" ?
1.4

What measured protein stability index goes with "L18I" ?
2

Please look up its protein stability index: "L10K"
1.73

Any idea what its protein stability index is? The variant is "L11Q"
1.67

Given the variant "A16L" , what is its reported protein stability index?
1.64

Data request, read-out protein stability index, for "F14G"
2.11

What measured protein stability index goes with "H19C" ?
2.94

Which measured protein stability index value corresponds to "M2V" ?
1.85

Fill in the blank: the reported protein stability index of "F14P" is ____.
2.09

May I ask what protein stability index has been recorded for "H19T" ?
2.67

Can you look up the measured protein stability index of "S12C" for me?
1.88

From: the supplement of paper PMC10567573
